assay: xn = mol fraction of the nth substance listed; details: 298.15 K; 101 kPa; x2 = 0.001799; x1 = 3.6e-07
test_readout: electrical conductivity (S/m)
# output: bare number, implied unit S/m

{"columns": ["molecule", "unit_tag", "electrical conductivity"],
 "data": [
  ["CCCCCCCCCCCCCCCC[n+]1ccccc1.O=C([O-])c1ccccc1O + CC(C)C[C@H](N)C(=O)O + O", "S/m", 0.00172],
  ["CCCCCCCCCCCCCCCC[n+]1ccccc1.O=C([O-])c1ccccc1O + C[C@H](N)C(=O)O + O", "S/m", 0.000542],
  ["CCCCCCCCCCCCCCCC[n+]1ccccc1.O=C([O-])c1ccccc1O + NCC(=O)NCC(=O)O + O", "S/m", 0.00311],
  ["CCCCCCCCCCCCCCCC[n+]1ccccc1.O=C([O-])c1ccccc1O + NCC(=O)O + O", "S/m", 0.000578]
]}

Next up:
Q: Quick check: electrical conductivity of CCCCCCCCCCCCCCCC[n+]1ccccc1.O=C([O-])c1ccccc1O + CC(C)[C@H](N)C(=O)O + O ?
Ans: 0.00135

* * *

experiment: xn = mol fraction of the nth substance listed; conditions: 303.15 K; 101 kPa; x2 = 0.001799; x1 = 3.6e-07
Entries and their electrical conductivity
State just the number; it will be interpreted in S/m.

Answered examples (4):
{"columns": ["molecule", "electrical conductivity / S/m"],
 "data": [
  ["CCCCCCCCCCCCCCCC[n+]1ccccc1.O=C([O-])c1ccccc1O + CC(C)C[C@H](N)C(=O)O + O", 0.00192],
  ["CCCCCCCCCCCCCCCC[n+]1ccccc1.O=C([O-])c1ccccc1O + C[C@H](N)C(=O)O + O", 0.000625],
  ["CCCCCCCCCCCCCCCC[n+]1ccccc1.O=C([O-])c1ccccc1O + NCC(=O)O + O", 0.00067],
  ["CCCCCCCCCCCCCCCC[n+]1ccccc1.O=C([O-])c1ccccc1O + CC(C)[C@H](N)C(=O)O + O", 0.00152]
]}

Next up:
Q: Give its electrical conductivity value. Item: CCCCCCCCCCCCCCCC[n+]1ccccc1.O=C([O-])c1ccccc1O + NCC(=O)NCC(=O)O + O
Ans: 0.00371

* * *

// reported electrical conductivity per item
assay: xn = mol fraction of the nth substance listed; details: 293.15 K; 101 kPa; x2 = 0.001799; x1 = 3.6e-07

Q: // electrical conductivity lookup, key: CCCCCCCCCCCCCCCC[n+]1ccccc1.O=C([O-])c1ccccc1O + NCC(=O)O + O
Ans: 0.000498 S/m

Q: # get_value(readout='electrical conductivity', item= CCCCCCCCCCCCCCCC[n+]1ccccc1.O=C([O-])c1ccccc1O + CC(C)C[C@H](N)C(=O)O + O )
Ans: 0.00153 S/m

Q: Query (compound): CCCCCCCCCCCCCCCC[n+]1ccccc1.O=C([O-])c1ccccc1O + C[C@H](N)C(=O)O + O ; field requested: electrical conductivity
Ans: 0.00047 S/m

Q: For the compound CCCCCCCCCCCCCCCC[n+]1ccccc1.O=C([O-])c1ccccc1O + CC(C)[C@H](N)C(=O)O + O , what electrical conductivity is on record?
Ans: 0.00119 S/m

Q: Could you tell me which electrical conductivity is on file for CCCCCCCCCCCCCCCC[n+]1ccccc1.O=C([O-])c1ccccc1O + NCC(=O)NCC(=O)O + O ?
Ans: 0.0026 S/m
